- Tested on: HCC-2998 colon
- ASSAY DETAILS: NCI-60 one-dose screen, 48 h (100 = growth as untreated, 0 = no growth, -100 = all killed)
- ASSAY CONTEXT: 10 µM unless noted
Compounds without any hit were thinned out: in the full panel of roughly 83,000, 20% have a hit.
// values below are reported growth
MEASURED ATTRIBUTE: growth (%)

INSERT INTO measurements (molecule, measured_attribute, number) VALUES
  ('COc1cc(OC)c(C(=O)/C=C/c2cccc(C(F)(F)F)c2)c(OC)c1', 'growth', 29.1),
  ('O=C1c2ccccc2C(=O)c2c1oc1oc3c(c(=O)c21)c(=O)n(-c1ccccc1)c1ccccc31', 'growth', 42.9),
  ('CCO/C=N/NC(=O)c1ccncc1', 'growth', 113),
  ('Nc1ccccc1C#C/C=C\C#Cc1cccc(O)c1', 'growth', 41.3),
  ('CCc1c(C(=O)Nc2ccc3ccccc3c2)[nH]c(C)c1C(C)=O', 'growth', 99.1),
  ('O=C(Nc1ccc(Cl)cc1)c1cc(-c2ccc(F)cc2)c2sc(=O)[nH]c2n1', 'growth', 22),
  ('O=C(O)c1ccc(-n2c(=O)c3ccccc3c3ccccc3c2=O)cc1', 'growth', 110),
  ('O=C(O)Cc1ccc2c(c1)Cc1cccnc1O2', 'growth', 99),
  ('CCCS(=O)(=O)c1nc(NC2CC2)cc(-c2ccc3c(ccn3C3CC(C)(C)NC(C)(C)C3)c2)n1', 'growth', 1.29),
  ('COc1ncc(-c2ccc3ncnc(Nc4cccc(Cl)c4)c3c2)cc1N(S(C)(=O)=O)S(C)(=O)=O', 'growth', 76.4),
  ('O=C(O)c1ccc(-n2cc(CNc3ccc(C(F)(F)F)cc3)c(-c3ccccc3)n2)cc1', 'growth', 108),
  ('O=C(Nc1cc(C(F)(F)F)cc(C(F)(F)F)c1)Nc1ccc(OCc2nnc(-c3ccc(Cl)cc3)o2)c(F)c1', 'growth', 20.3),
  ('COc1cc(/C=C2\CCCC3=C2N=C2SC(C)=NN2C3c2cc(OC)c(OC)c(OC)c2)cc(OC)c1OC (centres undefined)', 'growth', 55.4),
  ('CCOC(=O)[C@H](CSSc1ncnc2cc[nH]c12)NC(=O)[C@@H](C)c1ccc2cc(OC)ccc2c1', 'growth', 25.4),
  ('O=S(=O)(NCCCNc1cc(-c2cn(-c3ccccc3)nc2-c2cccc(O)c2)ccn1)c1ccc(C(F)(F)F)cc1', 'growth', -30.5),
  ('COc1ccc(/C=C\c2cc(OC)c(OC)c(OC)c2)c(NS(=O)(=O)c2ccc(C(C)(C)C)cc2)c1O', 'growth', 19.5),
  ('CC(=O)C1CCC(C)=CC1=O (centres undefined)', 'growth', 103),
  ('O=C(/C=C/CN1CCCCC1)Nc1cc2c(Nc3ccc(F)c(Cl)c3F)ncnc2cc1OCCOC(F)F', 'growth', 40.6),
  ('COC1=CC(c2ccc[nH]2)=N/C1=C\c1[nH]c(C)c(CCCn2cc(CCCCCCCCC[C@@H]3Cc4cc(O)ccc4C4CC[C@]5(C)[C@@H](O)CC[C@H]5C43)nn2)c1C (some centres undefined)', 'growth', 36.4),
  ('O=S(=O)(O)CCl', 'growth', 98.9),
  ('COc1cccc2cc(-c3cc4ccccc4[nH]3)c(=NC(=O)c3ccc(Cl)cc3)oc12', 'growth', 75.7),
  ('O=C(Nc1cccc(C(F)(F)F)c1)Nc1ccc(OCc2nnc(-c3ccccc3)o2)c(F)c1', 'growth', 64.3),
  ('COc1ccc(C2SCC(=O)N2NC(=O)c2ccc(NC(=O)c3ccccn3)cc2)cc1OC (centres undefined)', 'growth', 104),
  ('COc1cccc(NC(=O)Cn2cc3c(=O)oc4ccccc4c3n2)c1', 'growth', 110),
  ('CC(=O)OCC1OC(OCC2OC(OC(C)=O)C(OC(C)=O)C(OC(C)=O)C2OC(C)=O)C(OC(C)=O)C(OC(C)=O)C1OC(C)=O (centres undefined)', 'growth', 96.2),
  ('COc1cc(NCCN=C(N)NC(N)=NC(C)C)c2ncccc2c1', 'growth', 82.9),
  ('CCNC(=O)C1CCCN1C(=O)C(CCCN=C(N)N)NC(=O)C(CC(C)C)NC(=O)C(CC(C)C)NC(=O)C(Cc1ccc(O)cc1)NC(=O)C(CO)NC(=O)C(Cc1c[nH]c2ccccc12)NC(=O)C(Cc1cnc[nH]1)NC(=O)C1CCC(=O)N1 (centres undefined)', 'growth', 94.4),
  ('CC1CCN(C(=O)CSc2nc3sc4c(c3c(=O)[nH]2)CCCC4)CC1', 'growth', 120),
  ('COc1ccc(/C=C/C(=O)OCC(=O)NNC(=O)c2ccccc2)cc1OC', 'growth', 127),
  ('C=C1C(=O)O[C@H]2[C@H]1CC/C(Cn1cc(-c3ccsc3)nn1)=C\CC[C@@]1(C)O[C@@H]21', 'growth', -46.7),
  ('CCOC(=O)c1ccccc1NC(c1ccccc1)c1ccc2cccnc2c1O (centres undefined)', 'growth', 51.8),
  ('COc1ccc2c(c1)NC(=O)CN2c1nc(NC2CC2)nc2ccccc12', 'growth', 6.95),
  ('COc1cc(OC)c(C(=O)/C=C/c2ccc(C#N)cc2)c(OC)c1', 'growth', 36.8),
  ('Cc1cc2c(c(=O)o1)C(c1ccc(OC(=O)N3CCOCC3)cc1)C(C#N)=C(N)O2 (centres undefined)', 'growth', 99.4);
